Target: DNA-PK (Homo sapiens)
Experiment: DNA-PK Inhibition Assay (standard radiometric kinase assay, 33P-ATP, peptide substrate)
Assay type: biochemical
Reported metric: Ki

Just so you know, measured Ki for ClCCN1CCC(c2cnc(N[C@H]3CC[C@@H](Oc4cc(N5CCOCC5)cc5nccnc45)CC3)nc2)CC1 [Compound 522] came out at < 0.1 µM

====

Target: DNA-PK (Homo sapiens)
Assay: DNA-PK Inhibition Assay (standard radiometric kinase assay, 33P-ATP, peptide substrate)
Format: biochemical
Conditions: radiometric assay, approximately 6 nM DNA-PK, 100 μM ATP, 45 min; fit to competitive tight-binding inhibition; read-out: Ki for the inhibition of DNA-PK
Procedure: Compounds were screened for their ability to inhibit DNA-PK kinase using a standard radiometric assay. Briefly, in this kinase assay the transfer of the terminal ^33P-phosphate in ^33P-ATP to a peptide substrate is interrogated. […] Following the addition of 50 μL of Ultima Gold™ high efficiency scintillant (obtained from Perkin Elmer), the samples were counted in a Packard TopCount NXT Microplate Scintillation and Luminescence Counter (Packard BioScience). […]
Reported metric: Ki

Reference set, count: 5
>  <Compound>
Cc1noc(-c2ccc(N[C@H]3CC[C@@H](Oc4cc(N5CCOCC5)cc5nccnc45)CC3)nc2)n1

>  <Reported value>
< 100 nM

$$$$
>  <Compound>
Fc1cccc(N[C@H]2CC[C@@H](Oc3cc(N4CCOCC4)cc4nccnc34)CC2)n1

>  <Reported value>
< 100 nM

$$$$
>  <Compound>
c1cnc2c(O[C@H]3CC[C@@H](Nc4cc5ncnn5cn4)CC3)cc(N3CCOCC3)cc2n1

>  <Reported value>
< 100 nM

$$$$
>  <Compound>
CN1CCc2ncnc(N[C@H]3CC[C@@H](Oc4cc(N5CCOCC5)cc5nccnc45)CC3)c2C1

>  <Reported value>
< 100 nM

$$$$
>  <Compound>
CC(C)(C)OC(=O)N1CCC(c2cnc(N[C@H]3CC[C@@H](Oc4cc(N5CCOCC5)cc5nccnc45)CC3)nc2)C1 (stereo partly drawn)

>  <Reported value>
< 100 nM

$$$$

Hey, can you go through the list below and give me Ki for every item?
1. Cc1nc(C)c(F)c(N[C@H]2CC[C@@H](Oc3cc(N4CCOCC4)cc4nccnc34)CC2)n1
2. CCOc1cccc(N[C@H]2CC[C@@H](Oc3cc(N4CCOCC4)cc4nccnc34)CC2)n1
3. Cc1nc(N[C@H]2CC[C@@H](Oc3cc(N4CCOCC4)cc4nccnc34)CC2)c2occc2n1
4. O=C1Cc2c(ncnc2N[C@H]2CC[C@@H](Oc3cc(N4CCOCC4)cc4nccnc34)CC2)N1
5. CN(C)CCOc1cnc(N[C@H]2CC[C@@H](Oc3cc(N4CCOCC4)cc4nccnc34)CC2)nc1
6. CN(C)Cc1cnc(N[C@H]2CC[C@@H](Oc3cc(N4CCOCC4)cc4nccnc34)CC2)nc1
7. Cn1ccc(N[C@H]2CC[C@@H](Oc3cc(N4CCOCC4)cc4nccnc34)CC2)n1
8. CN1CCc2nc(N[C@H]3CC[C@@H](Oc4cc(N5CCOCC5)cc5nccnc45)CC3)ncc2C1

Out:
1: < 100 nM; 2: < 100 nM; 3: < 100 nM; 4: < 100 nM; 5: < 100 nM; 6: < 100 nM; 7: < 100 nM; 8: < 100 nM
